# Assay procedure: Pharmacokinetics of Compound I in healthy volunteers after a single dose of Form B of Compound II
# Format: in vivo, human
# Condition details: human, plasma, oral, single 600 mg dose of Form B of Compound II, read-out: Vz/F
# Procedure: Table 84 provides the pharmacokinetic parameters of Compound I upon administration of a single dose of Form B of Compound II (48, 100, 200, 300, 400, or 600 mg) in healthy volunteers. Blood samples for analysis of Compound I were collected pre-dose and 0.25, 0.5, 1, 1.5, 2, 3, 4, 6, 8, 12, 24, 36, 48, 72, and 96 hours post-dose.
Quantity measured: Vd/F (L)

Item smiles	Measurement unit	Measured value
CC(C)N1CCN(c2ccc(Nc3ncc4cc5n(c4n3)C3(CCCCC3)CNC5=O)nc2)CC1	L	16800

* * *

# Assay procedure: Plasma concentration versus time of Compound I and metabolite Compound III in patients dosed QD or BID with Form B of Compound II plus fulvestrant
# Assay type: in vivo, human
# Condition details: human, plasma, oral, 500 mg, Cohort 4, 500 mg QD of Form B, Day 29, 12.0 h; read-out: Compound III Concentration, Max
# From the text: Patients were enrolled into 1 of 2 parallel, independently operating, dose-escalation dosing cohorts with Form B of Compound II administered continuously either once daily (QD) or twice daily (BID) with food with fixed-dose fulvestrant (intramuscularly every 14 days for the first three injections and then every 28 days). Pre- or perimenopausal patients also received goserelin for the duration of study treatment. […]

Item smiles	concentration at 12 h, ng/mL
O=C1NCC2(CCCCC2)n2c1cc1cnc(Nc3ccc(N4CCNCC4)cn3)nc12	2.55

* * *

# Assay procedure: Noncompartmental pharmacokinetic parameters (Cmax, Tmax, AUC, Racc) in QD and BID cohorts of Form B
# Assay type: in vivo, human
# Condition details: human, plasma, oral, 400 mg, Compound I; 400 mg QD of Form B; Cohort 3; Day 29; read-out: Tmax (Mean)
# Procedure: Analysis of plasma concentration versus time data for calculation of standard pharmacokinetic (PK) parameters following oral administration was conducted using Phoenix WinNonlin version 6.3 using actual blood sampling times. […]

Compound	Tmax [h]
CC(C)N1CCN(c2ccc(Nc3ncc4cc5n(c4n3)C3(CCCCC3)CNC5=O)nc2)CC1 [Compound I]	5.33

* * *

# Assay procedure: Plasma concentration versus time of Compound I and metabolite Compound III in patients dosed QD or BID with Form B of Compound II plus fulvestrant
# Format: in vivo, human
# Condition details: human, plasma, oral, 650 mg, Cohort 5, 650 mg QD of Form B, Day 29, 8.0 h; read-out: Compound I Concentration, Median

Item smiles	concentration at 8 h
CC(C)N1CCN(c2ccc(Nc3ncc4cc5n(c4n3)C3(CCCCC3)CNC5=O)nc2)CC1	66 ng/mL

* * *

# Assay procedure: Plasma concentration versus time of Compound I and metabolite Compound III in patients dosed QD or BID with Form B of Compound II plus fulvestrant
# Assay type: in vivo, human
# Condition details: human, plasma, oral, 400 mg, 400 mg QD of Form B, Day 1, 12.0 h, Median; read-out: Compound I Concentration
Quantity measured: concentration at 12 h (ng/mL)

Item smiles	Measured value
CC(C)N1CCN(c2ccc(Nc3ncc4cc5n(c4n3)C3(CCCCC3)CNC5=O)nc2)CC1	8.13

* * *

# Assay procedure: Plasma concentration versus time of Compound I and metabolite Compound III in patients dosed QD or BID with Form B of Compound II plus fulvestrant
# Format: in vivo, human
# Condition details: human, plasma, oral, 650 mg, 650 mg QD of Form B, Day 1, […], Median; read-out: Compound I Concentration

Item smiles	concentration at 24 h / ng/mL
CC(C)N1CCN(c2ccc(Nc3ncc4cc5n(c4n3)C3(CCCCC3)CNC5=O)nc2)CC1	16

* * *

# Assay procedure: Plasma concentration versus time of Compound I and metabolite Compound III in patients dosed QD or BID with Form B of Compound II plus fulvestrant
# Format: in vivo, human
# Condition details: human, plasma, oral, 300 mg, 300 mg QD of Form B, Day 29, 6.0 h, Median; read-out: Compound I Concentration

Item smiles	concentration at 6 h [ng/mL]
CC(C)N1CCN(c2ccc(Nc3ncc4cc5n(c4n3)C3(CCCCC3)CNC5=O)nc2)CC1	39.2

* * *

# Assay procedure: Plasma concentration versus time of Compound I and metabolite Compound III in patients dosed QD or BID with Form B of Compound II plus fulvestrant
# Assay type: in vivo, human
# Condition details: human, plasma, oral, 400 mg, 400 mg QD of Form B, Day 29, 10.0 h, Mean; read-out: Compound I Concentration

Molecule	Measurement unit	concentration at 10 h
CC(C)N1CCN(c2ccc(Nc3ncc4cc5n(c4n3)C3(CCCCC3)CNC5=O)nc2)CC1 [Compound I]	ng/mL	14.2

* * *

# Assay procedure: Plasma concentration versus time of Compound I and metabolite Compound III in patients dosed QD or BID with Form B of Compound II plus fulvestrant
# Format: in vivo, human
# Condition details: human, plasma, oral, 100 mg, Cohort 6, 100 mg BID of Form B, Day 29, 6.0 h; read-out: Compound I Concentration, Max
Quantity measured: concentration at 6 h

Compound	Measured value
CC(C)N1CCN(c2ccc(Nc3ncc4cc5n(c4n3)C3(CCCCC3)CNC5=O)nc2)CC1 [Compound I]	16.2 ng/mL

* * *

# Assay procedure: Plasma concentration versus time of Compound I and metabolite Compound III in patients dosed QD or BID with Form B of Compound II plus fulvestrant
# Type: in vivo, human
# Condition details: human, plasma, oral, 650 mg, 650 mg QD of Form B, Day 1, 3.0 h, Mean; read-out: Compound III Concentration

Molecule	concentration at 3 h [ng/mL]
O=C1NCC2(CCCCC2)n2c1cc1cnc(Nc3ccc(N4CCNCC4)cn3)nc12 [Compound III]	6.13

* * *

# Assay procedure: Noncompartmental pharmacokinetic parameters (Cmax, Tmax, AUC, Racc) in QD and BID cohorts of Form B
# Format: in vivo, human
# Condition details: human, plasma, oral, 400 mg, Cohort 3, 400 mg QD of Form B, Day 1; read-out: Cmax, Mean
Quantity measured: Cmax (ng/mL)

Item smiles	Quantity measured	Measurement unit	Measured value
CC(C)N1CCN(c2ccc(Nc3ncc4cc5n(c4n3)C3(CCCCC3)CNC5=O)nc2)CC1	Cmax	ng/mL	20.1

* * *

# Assay procedure: Noncompartmental pharmacokinetic parameters (Cmax, Tmax, AUC, Racc) in QD and BID cohorts of Form B
# Format: in vivo, human
# Condition details: human, plasma, oral, 150 mg, Compound III; 150 mg BID of Form B; Cohort 7; Day 29; read-out: Cmax (Median)

Compound	Cmax [ng/mL]
O=C1NCC2(CCCCC2)n2c1cc1cnc(Nc3ccc(N4CCNCC4)cn3)nc12 [Compound III]	3.55

* * *

# Assay procedure: Plasma concentration versus time of Compound I and metabolite Compound III in patients dosed QD or BID with Form B of Compound II plus fulvestrant
# Format: in vivo, human
# Condition details: human, plasma, oral, 300 mg, 300 mg QD of Form B, Day 1, 6.0 h, Mean; read-out: Compound I Concentration
Quantity measured: concentration at 6 h (ng/mL)

Item smiles	Quantity measured	Measurement unit	Measured value
CC(C)N1CCN(c2ccc(Nc3ncc4cc5n(c4n3)C3(CCCCC3)CNC5=O)nc2)CC1	concentration at 6 h	ng/mL	31.6

* * *

# Assay procedure: Plasma concentration versus time of Compound I and metabolite Compound III in patients dosed QD or BID with Form B of Compound II plus fulvestrant
# Format: in vivo, human
# Condition details: human, plasma, oral, 100 mg, Cohort 6, 100 mg BID of Form B, Day 22; read-out: Trough Compound III Concentration, Median
Quantity measured: concentration at 22 day (ng/mL)

Item smiles	Quantity measured	Measurement unit	Measured value
O=C1NCC2(CCCCC2)n2c1cc1cnc(Nc3ccc(N4CCNCC4)cn3)nc12	concentration at 22 day	ng/mL	0.403

* * *

# Assay procedure: Plasma concentration versus time of Compound I and metabolite Compound III in patients dosed QD or BID with Form B of Compound II plus fulvestrant
# Type: in vivo, human
# Condition details: human, plasma, oral, 300 mg, 300 mg QD of Form B, Day 29, 12.0 h, Mean; read-out: Compound I Concentration
Quantity measured: concentration at 12 h (ng/mL)

Compound	Quantity measured	Measured value
CC(C)N1CCN(c2ccc(Nc3ncc4cc5n(c4n3)C3(CCCCC3)CNC5=O)nc2)CC1 [Compound I]	concentration at 12 h	26.4

* * *

# Assay procedure: Noncompartmental pharmacokinetic parameters (Cmax, Tmax, AUC, Racc) in QD and BID cohorts of Form B
# Assay type: in vivo, human
# Condition details: human, plasma, oral, 300 mg, Cohort 2, 300 mg QD of Form B, Day 1; read-out: AUClast, Median

Item smiles	AUC(0-t)
CC(C)N1CCN(c2ccc(Nc3ncc4cc5n(c4n3)C3(CCCCC3)CNC5=O)nc2)CC1	554 ng·h/mL
